- TARGET_ENTITY: T1, human IL-23 (human, UniProt Q9NPF7 20-189; P29460 23-328)
- T1 construct: Bought recombinant heterodimeric cytokine (eBioscience 34-8239-85 for panning; R&D Systems for the splenocyte assay); also called hIL-23; hIL23
- T1 sequence (looked up) 1: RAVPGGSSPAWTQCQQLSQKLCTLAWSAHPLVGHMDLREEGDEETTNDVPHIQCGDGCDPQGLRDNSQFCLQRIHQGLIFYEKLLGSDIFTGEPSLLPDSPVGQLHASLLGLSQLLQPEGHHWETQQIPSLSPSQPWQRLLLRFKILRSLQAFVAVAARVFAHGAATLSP
- T1 sequence (looked up) 2: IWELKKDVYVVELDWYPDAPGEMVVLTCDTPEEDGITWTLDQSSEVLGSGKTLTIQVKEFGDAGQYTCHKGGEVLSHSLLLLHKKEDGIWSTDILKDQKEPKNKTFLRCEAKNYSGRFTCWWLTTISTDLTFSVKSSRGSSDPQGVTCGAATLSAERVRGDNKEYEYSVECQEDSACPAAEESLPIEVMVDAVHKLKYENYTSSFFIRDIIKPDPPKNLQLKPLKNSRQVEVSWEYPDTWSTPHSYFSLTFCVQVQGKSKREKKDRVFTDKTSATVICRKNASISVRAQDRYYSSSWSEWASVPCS
- PROTOCOL_SUMMARY: kinetic ELISA, soluble polypeptide
pKd: −log10 of the molar value.
Listed binders paired with reported pKd
READOUT_LABEL: pKd

[[record]]
binder = "MB9 (designed binder) MSIQQIQKEITNIQEVIAAIQKWIYTMTGGSGGSGGMSIEEIQKQIAAIQCQIAAIQKQIYAMTGSGGGGSGGSGGGGSGMSIEEIQKQIAAIQNQILAIYKQIMAMGS"
value_measured = 9.89

[[record]]
binder = "MB64 (designed binder) MSIQQIQKEITQIQAVIAGIQKYIYRMTGGSGGSGGGGSGGSGGMSIEEIQKQIAAIQCQIAAIQKQIYAMTGSGGGGSGMSIEEIQKQIAAIQGQIVAIYKQIMAMAT"
value_measured = 9.52

[[record]]
binder = "MB23 (designed binder, 3 for clone 59 (conflict); also called non-PEGylated MB23 Alphabody) MSIEQIQKEITTIQEVIAAIQKYIYTMTGGSGGSGGMSIEEIQKQIAAIQCQIAAIQKQIYAMTGSGGGGSGMSIEEIQKQIAAIQEQIVAIYKQIMAMAS"
value_measured = 9.82

[[record]]
binder = "59m_A3cA_A4cS_C2eQ (designed binder, also called design variant; polypeptide 20) single chain Alphabody: MSIQQIQKEIAQIQEVIAAIQKWIYSMTGGSGGSGGGGSGGSGGMSIEEIQKQIAAIQCQIAAIQKQIYAMTGSGGGGSGGSGGGGSGMSIEEIQKQITAIQEQIIAIYKQIMAMTP"
value_measured = 9.12

[[record]]
binder = "MB43 (designed binder) MSIEEIQKEIKNIQEVIAAIQKYIYTMTGGSGGSGGMSIEEIQKQIAAIQCQIAAIQKQIYAMTGSGGGGSGGSGGGGSGMSIEEIPKQIAAIQDQIIAIYKQIMAMTR"
value_measured = 9.96

[[record]]
binder = "MA14 (designed binder) MSIEQIQTEIASIQEVIAGIQKYIYSMTGGSGGSGGMSIEEIQKQIAAIQCQIAAIQKQIYAMTGSGGGGSGMSIEEIQKQIAAIQNQIVAIYKQIMAMGG"
value_measured = 8.60

[[record]]
binder = "MB67 (designed binder) MSIQKIQKEITNIQEVIAAIQKYIYTMTGGSGGSGGMSIEEIQKQIAAIQCQIAAIQKQIYAMTGSGGGGSGGSGGGGSGMSIEEIQKQIAAIQRQILAIYKQIMAMST"
value_measured = 9.85

